- TARGET_ENTITY: Nuclear receptor subfamily 0 group B member 1 (Homo sapiens) (UniProt P51843)
- Sequence (P51843 whole entry, looked up): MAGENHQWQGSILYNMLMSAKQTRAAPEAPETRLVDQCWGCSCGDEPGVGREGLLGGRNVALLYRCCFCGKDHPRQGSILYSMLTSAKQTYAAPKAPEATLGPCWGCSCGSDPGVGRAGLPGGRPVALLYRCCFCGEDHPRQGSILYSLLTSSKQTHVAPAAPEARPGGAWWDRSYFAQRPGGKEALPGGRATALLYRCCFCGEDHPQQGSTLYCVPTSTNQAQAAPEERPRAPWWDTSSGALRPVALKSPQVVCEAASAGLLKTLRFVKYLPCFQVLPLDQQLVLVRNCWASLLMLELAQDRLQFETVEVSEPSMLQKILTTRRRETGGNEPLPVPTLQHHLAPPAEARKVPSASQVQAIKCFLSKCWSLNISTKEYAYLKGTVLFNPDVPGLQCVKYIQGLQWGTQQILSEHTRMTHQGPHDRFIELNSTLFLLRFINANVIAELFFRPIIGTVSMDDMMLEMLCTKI
- PROTOCOL: DAX1 (NR0B1) inhibitors relieving SF-1 repression, confirmation, cell-based, luminescence, HEK293T, full-length DAX-1, SF-1 activated StAR promoter (AID 652134);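 note: 0% = DAX-1 cells with DMSO and 100% = no DAX-1 control cells with DMSO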
- ASSAY_SETUP: HEK293T StAR-promoter luciferase reporter, SF-1/DAX-1 repression; at 6.8 µM
The campaign covered roughly 2,400 compounds. About 2,100 (88%) were called active.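 Rule for the calls: active = inhibition above the average of every tested compound plus 3 SD (cut at about 3.8% in these data); inactive = the rest.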 So high a share suggests a set chosen from earlier hits. Only a sample is shown.
Valid outcomes are listed here; reply with one: 1.0 (active), 0.0 (inactive)

Query: Hey, what did the test say about COc1ccc(OCc2cc(C(=O)N3CCCC3)no2)c2ccccc12 ?
Reply: 1.0

Query: Now consider Cc1ccc(C(=O)NNC(=O)c2ccc3c(c2)OCCO3)cc1 .
Reply: 1.0

Query: Now consider COc1ccccc1-c1cc(C(=O)N2CCCCC2)no1 .
Reply: 1.0

Query: Now consider O=C(NCC1(N2CCCCC2)CCCCC1)c1ccc(NS(=O)(=O)c2ccc(F)cc2)cc1 .
Reply: 1.0

Query: Now consider CC(C)c1ccc(Nc2nnc(SCC(=O)c3nnc(-c4ccccc4)o3)s2)cc1 .
Reply: 1.0

Query: Now consider O=C(Nc1ccn(Cc2ccccc2)n1)c1n[nH]c([N+](=O)[O-])c1Cl .
Reply: 1.0

Query: Now consider O=C(NCC1CCCO1)c1cc2c(s1)CCCC2 (centres undefined) .
Reply: 1.0

Query: Now consider O=C(CCc1ccccc1)Nc1ncc([N+](=O)[O-])s1 .
Reply: 0.0

Query: Now consider CC1CCN(CCCNC(=O)CN2C(=O)CSc3ccc(S(=O)(=O)N4CCCCC4)cc32)CC1 .
Reply: 0.0

Query: Now consider C(=N\Nc1ccc2ccccc2n1)/c1ccc2c(c1)OCO2 .
Reply: 1.0

Query: Now consider O=C(NCCc1c[nH]c2ccccc12)c1cc2ccccc2oc1=O .
Reply: 1.0

Query: Now consider CCSc1nnc(NC(=O)c2ccc(C)cc2)s1 .
Reply: 1.0

Query: Now consider Fc1ccc2cnc(-c3ccccc3)cc2c1 .
Reply: 1.0

Query: Now consider CC(C)(O)C#Cc1ccc(CNC[C@H]2O[C@@H](n3cnc4c(=O)[nH]c(N)nc43)[C@H](O)[C@@H]2O)s1 .
Reply: 0.0

Reference source for all entries: PubChem BioAssay AID652134
